- TARGET_OF_ASSAY: T1, human pituitary adenylate cyclase-activating polypeptide type I receptor (human, UniProt P41586 21-468)
- T1 construct: whole, on cells; On SH-SY5Y or recombinant CHO cells (cAMP assay), as membranes of hPAC-1 AequoScreen CHO cells (radioligand assay) and on CHOK1/huPac1 whole cells (KinExA); also called human PAC1; hPAC1
- T1 sequence (looked up): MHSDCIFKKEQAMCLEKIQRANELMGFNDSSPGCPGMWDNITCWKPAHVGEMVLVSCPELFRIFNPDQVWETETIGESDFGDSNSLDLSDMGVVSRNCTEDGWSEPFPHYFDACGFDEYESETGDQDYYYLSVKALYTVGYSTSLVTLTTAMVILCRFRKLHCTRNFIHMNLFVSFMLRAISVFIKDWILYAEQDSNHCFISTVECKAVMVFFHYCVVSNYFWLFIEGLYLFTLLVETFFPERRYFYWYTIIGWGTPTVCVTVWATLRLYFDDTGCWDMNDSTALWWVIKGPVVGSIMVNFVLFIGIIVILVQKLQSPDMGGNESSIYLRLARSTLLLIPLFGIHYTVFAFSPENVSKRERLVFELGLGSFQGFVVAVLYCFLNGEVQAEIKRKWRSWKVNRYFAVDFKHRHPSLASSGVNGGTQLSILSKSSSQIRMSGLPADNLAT
- METHOD_SUMMARY: radioligand competition, hPAC1 CHO membranes; competitor 125I-26A
REPORTED_ENDPOINT: Ki
Form field: result (number plus unit)

// query Query Ki for FTDSYSRYRKQMAVKKYLAAVLGKRYKQRVKNK (peptide, UniProt P18509 137-169, looked up, domain: PACAP 6-38) [PACAP 6-38]
// result 2.51 nM
